Biological target: T1, recombinant human TIGIT (human, UniProt Q495A1 22-141, limits assumed)
T1 construct: recombinant human TIGIT used in Carterra SPR; also called hTIGIT
T1 sequence (looked up): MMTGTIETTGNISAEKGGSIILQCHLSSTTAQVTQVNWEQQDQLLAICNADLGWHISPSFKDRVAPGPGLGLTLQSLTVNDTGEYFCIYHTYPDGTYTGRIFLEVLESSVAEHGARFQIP
Test: SPR Carterra, average
pKd: −log10 of the molar value.
Threshold rule: pKd greater than or equal to 8 is Fulfilled; below that, Not fulfilled.

TIGIT-SC169 (Fc fusion, VHH-Fc fusion in assay) VHH: EVQLVESGGGLVQPGGSLRLSCAASGFTLNDYAMGWFRQAPGKERELVAWIARYDGSTLYADSVKGRFTISADNSKNTAYLQMNSLKPEDTAVYYCTTELRWELQQPDYWGQGTLVTVSS :: Not fulfilled
TIGIT-SC74 (Fc fusion, VHH-Fc fusion in assay) VHH: EVQLVESGGGLVQPGGSLRLSCAASGRTFANNAMGWFRQAPGKEREFVAAINWSGGNTYYADSVKGRFTISADNSKNTAYLQMNSLKPEDTAVYYCAKWSYYGSGLYGMDVWGQGTLVTVSS :: Not fulfilled
TIGIT-SC167 (Fc fusion, VHH-Fc fusion in assay) VHH: EVQLVESGGGLVQPGGSLRLSCAASGRTFSFMGWFRQAPGKEREWVASVLRGGYTWYADSVKGRFTISADNSKNTAYLQMNSLKPEDTAVYYCAREGSGYASDYWGQGTLVTVSS :: Not fulfilled
TIGIT-SC160 (Fc fusion, VHH-Fc fusion in assay) VHH: EVQLVESGGGLVQPGGSLRLSCAASGNTFSGGFMGWFRQAPGKEREWVASVLRGGYTWYADSVKGRFTISADNSKNTAYLQMNSLKPEDTAVYYCAREGRSSSPWFDPWGQGTLVTVSS :: Not fulfilled
TIGIT-SC72 (Fc fusion, VHH-Fc fusion in assay) VHH: EVQLVESGGGLVQPGGSLRLSCAASGGLTFSSYAMGWFRQAPGKEREFVAAISWSGGRTYYADSVKGRFTISADNSKNTAYLQMNSLKPEDTAVYYCARWSAKRHSDTMTYYMDVWGQGTLVTVSS :: Not fulfilled

## Input # check: pKd of TIGIT-SC165 (Fc fusion, VHH-Fc fusion in assay) VHH: EVQLVESGGGLVQPGGSLRLSCAASGNTFSGGFMGWFRQAPGKEREWVASVLRGGYTWYADSVKGRFTISADNSKNTAYLQMNSLKPEDTAVYYCTTEGSGWRNWGQGTLVTVSS is greater than or equal to 8
## Output Not fulfilled
